Test system: rat small intestine
Test: Sustained Spike Potential (SSP) myoelectric bioassay, infusion into the duodenum via cannula in instrumented uninfected rats
Format: in vivo
Details: 10 mM, 0.2 ml infused into duodenum

[
  {
    "compound": "Nc1nc2nc[nH]c2c(=O)[nH]1 [Guanine, guanine, reference compound]",
    "value_unit": "SSP/Hr",
    "SSP/Hr (MEAN ± SE)": 0.33
  },
  {
    "compound": "Nc1nc2c(ncn2C2OC3COP(=O)(O)OC3C2O)c(=O)[nH]1 (stereo not drawn)",
    "value_unit": "SSP/Hr",
    "SSP/Hr (MEAN ± SE)": 2.0
  },
  {
    "compound": "Nc1nc2c(ncn2[C@@H]2O[C@H](CO)[C@@H](O)[C@H]2O)c(=O)[nH]1 [Guanosine, guanosine, reference compound]",
    "value_unit": "SSP/Hr",
    "SSP/Hr (MEAN ± SE)": 0.50
  },
  {
    "compound": "Nc1nc2c(ncn2[C@@H]2O[C@H](COP(=O)(O)O)[C@@H](O)[C@H]2O)c(=O)[nH]1 [Guanosine Monophosphate, reference compound]",
    "value_unit": "SSP/Hr",
    "SSP/Hr (MEAN ± SE)": 0.5
  },
  {
    "compound": "Nc1nc2c(nc(Br)n2[C@@H]2O[C@@H]3COP(=O)(O)O[C@H]3[C@H]2O)c(=O)[nH]1 [8-Br-cGMP, reference compound]",
    "value_unit": "SSP/Hr",
    "SSP/Hr (MEAN ± SE)": 0.50
  },
  {
    "compound": "Nc1nc2nc[nH]c2c(=O)[nH]1 [Guanine suspension, guanine, reference compound]",
    "value_unit": "SSP/Hr",
    "SSP/Hr (MEAN ± SE)": 0
  }
]
